Values compiled from ChEMBL document CHEMBL3046422.

Parameter: log(1/MLD). Scope: all listed entries.
Tested on: Periplaneta americana
Experiment: Insecticidal activity against adult male Periplaneta americana (American cockroach) dosed through injection into abdomen assessed as mortality measured 24 hr post dose pre-treated with 50 ug metabolic inhibitor PB and 50 ug NIA16388 1 hr before compound injection
Type: functional
Could you respond with only the numeric value?

Sample answers from the record:
[
  {
    "Molecule": "CC(C)Oc1cc(CN2CCN/C2=N\\[N+](=O)[O-])cnc1Cl",
    "log(1/MLD)": 8.1
  },
  {
    "Molecule": "CCCCOc1cc(CN2CCN/C2=N\\[N+](=O)[O-])cnc1Cl",
    "log(1/MLD)": 8.12
  },
  {
    "Molecule": "O=[N+]([O-])/N=C1\\NCCN1Cc1ccc(Cl)nc1 [IMIDACLOPRID]",
    "log(1/MLD)": 10.15
  },
  {
    "Molecule": "CCOc1cc(CN2CCN/C2=N\\[N+](=O)[O-])cnc1Cl",
    "log(1/MLD)": 8.08
  },
  {
    "Molecule": "CCCCCOc1cc(CN2CCN/C2=N\\[N+](=O)[O-])cnc1Cl",
    "log(1/MLD)": 6.46
  }
]

Ask: Please provide the recorded log(1/MLD) for O=[N+]([O-])/N=C1/NCCN1Cc1cnc(Cl)c(F)c1 [5-FLUOROIMIDACLOPRID] , tested on Periplaneta americana.
Result: 9.91

Ask: Please provide the recorded log(1/MLD) for `CCCOc1cc(CN2CCN/C2=N\[N+](=O)[O-])cnc1Cl` , tested on Periplaneta americana.
Result: 6.89

Ask: Please provide the recorded log(1/MLD) for `COc1cc(CN2CCN/C2=N\[N+](=O)[O-])cnc1Cl` , tested on Periplaneta americana.
Result: 8.74

Ask: Please provide the recorded log(1/MLD) for O=[N+]([O-])/N=C1\NCCN1Cc1cnc(Cl)c(Cl)c1 [5-CHLOROIMIDACLOPRID] , tested on Periplaneta americana.
Result: 9.05
